The following molecules are listed with their measured EC50 values.
Target: FPR2 (Homo sapiens, UniProt P25090)
Sequence (P25090 whole entry): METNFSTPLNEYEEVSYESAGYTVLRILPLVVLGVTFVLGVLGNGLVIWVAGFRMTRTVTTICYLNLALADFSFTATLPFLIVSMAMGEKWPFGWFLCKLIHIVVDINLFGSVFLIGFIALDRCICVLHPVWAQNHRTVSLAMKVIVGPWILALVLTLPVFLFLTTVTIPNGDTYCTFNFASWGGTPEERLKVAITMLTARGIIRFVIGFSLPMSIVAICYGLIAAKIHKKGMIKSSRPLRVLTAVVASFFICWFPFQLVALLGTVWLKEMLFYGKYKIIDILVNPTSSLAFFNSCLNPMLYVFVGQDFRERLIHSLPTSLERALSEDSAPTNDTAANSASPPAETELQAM
Test: Compound-induced calcium activity on FLIPR Tetra in CHO-Gα16 cells stably expressing FPRL1
Settings: tested 0.61 to 10,000 nM, read-out: FPR2 Ga16-CHO EC50

# Mol, EC50
data = [
    ("CC(C)C[C@H](NC(=O)Nc1ccc(Br)cc1)C(=O)N(C)CC(=O)O", "< 1 nM"),
    ("CCCN(CC(=O)O)C(=O)[C@H](CC(C)C)NC(=O)Nc1ccc(C(F)(F)F)cc1", "< 1 nM"),
    ("CCN(CC(=O)O)C(=O)[C@H](CC(C)C)NC(=O)Nc1ccc(Br)cc1", "0.13 nM"),
    ("CC(C)C[C@H](NC(=O)Nc1ccc(C(F)(F)F)cc1)C(=O)N(CC(=O)O)C(C)C", "1730 nM"),
    ("CC(C)C[C@H](NC(=O)Nc1ccc(C(F)(F)F)cc1)C(=O)N(C)CC(=O)OC(C)(C)C", "995 nM"),
]

Values compiled from patent US9428549B2.
